experiment-notes: Distribution coefficient (log D6.8), 1-octanol/pH 6.8 isotonic phosphate buffer
Assay type: physicochemical
assay-conditions: 1-octanol/isotonic phosphate buffer (pH 6.8)
assay-metric: logD at 12 h

1. O=C(O)CCC(=O)N[C@@H](CC(=O)O)C(=O)Nc1nc2ccc(OC(F)(F)F)cc2s1 [SAR, (N-succinyl-L-aspart-1-yl)riluzole] : -2.1
2. N[C@@H](CCC(=O)O)C(=O)Nc1nc2ccc(OC(F)(F)F)cc2s1 [GR, N-(L-glutam-1-yl)riluzole] : 1
3. O=C(O)CCC(=O)N[C@@H](CCC(=O)O)C(=O)Nc1nc2ccc(OC(F)(F)F)cc2s1 [SGR, (N-succinyl-L-glutam-1-yl)riluzole] : -2
4. N[C@@H](CC(=O)O)C(=O)Nc1nc2ccc(OC(F)(F)F)cc2s1 [AR, N-(L-aspart-1-yl)riluzole] : 0.8
